TEST TARGET: human SLC6A19 and TMEM27 (Homo sapiens, UniProt Q695T7)
Construct: expressed in transfected cells
Sequence (Q695T7 whole entry): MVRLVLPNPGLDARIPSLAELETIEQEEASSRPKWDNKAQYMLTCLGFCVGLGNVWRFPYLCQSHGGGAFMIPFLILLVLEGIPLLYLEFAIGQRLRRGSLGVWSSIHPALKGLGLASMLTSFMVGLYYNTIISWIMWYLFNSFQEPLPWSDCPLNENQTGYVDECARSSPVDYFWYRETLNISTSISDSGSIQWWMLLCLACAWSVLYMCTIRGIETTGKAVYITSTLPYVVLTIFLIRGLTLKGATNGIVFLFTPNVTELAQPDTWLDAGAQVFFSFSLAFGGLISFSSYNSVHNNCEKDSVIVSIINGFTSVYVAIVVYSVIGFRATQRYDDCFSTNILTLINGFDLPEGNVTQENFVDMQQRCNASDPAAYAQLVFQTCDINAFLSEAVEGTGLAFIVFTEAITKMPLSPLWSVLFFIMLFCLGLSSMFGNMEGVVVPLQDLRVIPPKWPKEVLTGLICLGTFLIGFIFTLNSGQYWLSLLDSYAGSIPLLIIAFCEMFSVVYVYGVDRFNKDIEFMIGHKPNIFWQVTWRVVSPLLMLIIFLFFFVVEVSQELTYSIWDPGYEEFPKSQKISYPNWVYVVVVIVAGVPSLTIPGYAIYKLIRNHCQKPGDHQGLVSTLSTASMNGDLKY
Sequence (Q9HBJ8 15-222 partner): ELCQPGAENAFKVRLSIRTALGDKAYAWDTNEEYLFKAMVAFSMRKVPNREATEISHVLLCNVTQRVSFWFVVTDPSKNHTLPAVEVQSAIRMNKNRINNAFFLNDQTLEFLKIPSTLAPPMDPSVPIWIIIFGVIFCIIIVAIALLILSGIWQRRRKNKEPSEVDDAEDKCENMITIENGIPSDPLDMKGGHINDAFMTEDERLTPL
ASSAY INFO: Radiolabelled (3H) leucine uptake in CHO cells with doxycycline-inducible expression of human SLC6A19 and TMEM27 (Example B-1)
Format: cell-based
EXPERIMENTAL CONDITIONS: CHO cells with doxycycline-inducible expression of human SLC6A19 and TMEM27, read-out: SLC6A19_Radioligand Uptake Assay IC50
# IC50 annotations
MEASUREMENT LABEL: IC50 (nM)

| COMPOUND | MEASUREMENT LABEL | ENDPOINT UNIT | RECORDED NUMBER |
| --- | --- | --- | --- |
| CC1(C(=O)NCc2cc3c(F)c(Cl)c(OCc4cscn4)cc3[nH]2)CC1 | IC50 | nM | 362 |
| Cc1cc(COc2cc3[nH]c(CNC(=O)[C@@H]4C[C@@H](F)CN4)cc3cc2Cl)on1 | IC50 | nM | 1560 |
| O=C(NCc1cc2cc(F)c(OCc3cscn3)cc2[nH]1)N1CCC1 | IC50 | nM | 214 |
| Cc1cc(COc2cc3[nH]c(CNC(=O)C(C)(F)F)cc3cc2Cl)on1 | IC50 | nM | 111 |
| Cc1cc(COc2cc3[nH]c(CNC(=O)C45COCC4C5)cc3cc2Cl)on1 (centres unmarked) | IC50 | nM | 321 |
| CC1(C(=O)NCc2cc3cc(Cl)c(CCn4nccn4)cc3[nH]2)CC1 | IC50 | nM | 176 |
| CC1CC(C(=O)NCc2cc3cc(Cl)c(OCc4cscn4)cc3[nH]2)C1 (centres unmarked) | IC50 | nM | 570 |
| CN(Cc1cn[nH]c1)C(=O)NCc1cc2cc(Cl)c(OCc3cscn3)cc2[nH]1 | IC50 | nM | 765 |
